biological target: EPHB1 (UniProt P54762); assay: phosphorylation enrichment, bacterial display (enrichment ratio); higher = better substrate or ligand; peptides without Tyr show the background;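 also: 11-residue human phosphosite peptides and single-mutation variants displayed on the E. coli surface, counted by deep sequencing, each peptide's frequency after selection divided by its frequency in the unselected input library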;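 also: frequency after pTyr selection over input frequency; kinase dosed for 20-30% of maximal phosphorylation in three min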
Sequence (P54762 whole entry, looked up): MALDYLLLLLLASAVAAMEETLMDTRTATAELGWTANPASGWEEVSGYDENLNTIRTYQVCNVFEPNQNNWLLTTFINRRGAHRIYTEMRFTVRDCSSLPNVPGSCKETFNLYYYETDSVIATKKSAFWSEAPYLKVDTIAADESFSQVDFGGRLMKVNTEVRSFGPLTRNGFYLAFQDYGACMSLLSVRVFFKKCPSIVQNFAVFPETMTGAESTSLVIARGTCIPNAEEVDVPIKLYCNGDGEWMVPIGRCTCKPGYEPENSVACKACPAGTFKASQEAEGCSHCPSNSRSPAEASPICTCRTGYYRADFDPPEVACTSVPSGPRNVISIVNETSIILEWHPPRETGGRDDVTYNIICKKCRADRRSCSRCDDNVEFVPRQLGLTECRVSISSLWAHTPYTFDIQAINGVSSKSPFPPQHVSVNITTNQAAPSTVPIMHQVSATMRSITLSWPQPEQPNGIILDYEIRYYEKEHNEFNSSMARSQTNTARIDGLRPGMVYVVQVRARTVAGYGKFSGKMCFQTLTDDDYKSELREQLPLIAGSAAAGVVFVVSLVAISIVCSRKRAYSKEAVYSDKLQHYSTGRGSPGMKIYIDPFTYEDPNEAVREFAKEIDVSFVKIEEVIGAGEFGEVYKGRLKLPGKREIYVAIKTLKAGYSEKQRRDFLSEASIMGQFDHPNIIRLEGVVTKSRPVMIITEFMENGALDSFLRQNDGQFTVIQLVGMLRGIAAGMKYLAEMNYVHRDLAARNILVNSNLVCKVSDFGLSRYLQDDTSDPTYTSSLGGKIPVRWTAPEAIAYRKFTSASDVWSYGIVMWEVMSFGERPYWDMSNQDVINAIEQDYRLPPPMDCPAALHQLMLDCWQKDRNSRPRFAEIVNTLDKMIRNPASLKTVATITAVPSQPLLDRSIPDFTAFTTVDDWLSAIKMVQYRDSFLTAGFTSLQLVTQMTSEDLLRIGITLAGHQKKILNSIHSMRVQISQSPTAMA
Lab note: compare phosphorylation enrichment against 0.6. Equal or greater, write rule met. Smaller, write rule not met.

INSERT INTO results (sequence_text, qualitative_label) VALUES
  ('ETDSEYVKLSK [C7orf57_Y70_A74S]', 'rule not met'),
  ('FFSSEYHCVGG [CTSC_Y345_Y347C_YF]', 'rule met'),
  ('CTTIHNNYMCN [TP53_Y234_Y234N]', 'rule not met'),
  ('SCPANYFAFKI [FAM3D_Y65_P60S]', 'rule met'),
  ('KPSLKYVTYGN [GALNTL5_Y404_G401S]', 'rule not met'),
  ('PPAPRYHHSAV [LZTR1_Y119]', 'rule not met');
